Target: rhinovirus 3C protease from HRV serotype-14 (Human rhinovirus 14, UniProt P03303)
Construct: Recombinant rhinovirus 3C proteases; made in house
Sequence (P03303 1538-1719): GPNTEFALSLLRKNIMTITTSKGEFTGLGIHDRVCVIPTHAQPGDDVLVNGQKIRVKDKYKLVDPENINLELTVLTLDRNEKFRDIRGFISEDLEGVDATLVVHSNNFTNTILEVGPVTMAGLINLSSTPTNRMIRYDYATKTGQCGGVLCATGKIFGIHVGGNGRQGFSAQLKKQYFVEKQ
Assay: Inhibition of rhinovirus 3C protease (FRET assay), serotype 14
Assay type: biochemical
Conditions: HRV serotype-14 3C protease; progress curves in enzyme start experiments; read-out: Protease Inhibition kobs/[I]
kinact/KI strictly less than 200000 M⁻¹ s⁻¹ = fulfilled. Otherwise not fulfilled.

{"columns": ["COMPOUND", "SYSTEM_NAME", "CLASS_ASSIGNMENT"],
 "data": [
  ["CCOC(=O)/C=C/[C@H](CCC(N)=O)NC(=O)[C@H](Cc1ccccc1)NC(=O)[C@H](CC(C)C)NC(=O)OCc1ccccc1 [Comparison Compound #2, reference compound]", "rhinovirus 3C protease from HRV serotype-14 (Human rhinovirus 14, UniProt P03303)", "fulfilled"],
  ["CCOC(=O)/C=C/[C@H](C[C@@H]1CCNC1=O)NC(=O)[C@H](Cc1ccc(F)cc1)OC(=O)[C@@H](NC(=O)c1cc(C)on1)C(C)C", "rhinovirus 3C protease from HRV serotype-14 (Human rhinovirus 14, UniProt P03303)", "not fulfilled"],
  ["CCOC(=O)/C=C/[C@H](C[C@@H]1CCCNC1=O)NC(=O)[C@@H](CC(=O)[C@@H](NC(=O)c1cc(C)on1)C(C)C)Cc1ccc(F)cc1", "rhinovirus 3C protease from HRV serotype-14 (Human rhinovirus 14, UniProt P03303)", "not fulfilled"],
  ["CCOC(=O)/C=C/[C@H](CCC(N)=O)NC(=O)[C@H](Cc1ccccc1)NC(=O)[C@H](CC(C)C)NC(=O)c1cc(C)[nH]n1", "rhinovirus 3C protease from HRV serotype-14 (Human rhinovirus 14, UniProt P03303)", "fulfilled"],
  ["CCOC(=O)/C=C/[C@H](CCC(N)=O)NC(=O)[C@H](Cc1ccc(F)cc1)NC(=O)[C@@H](NC(=O)c1cc(C)on1)C(C)(C)C", "rhinovirus 3C protease from HRV serotype-14 (Human rhinovirus 14, UniProt P03303)", "not fulfilled"],
  ["CCOC(=O)/C=C/[C@H](CCC(N)=O)NC(=O)[C@H](Cc1ccc(C)cc1)NC(=O)[C@@H](NC(=O)c1cc(C)on1)C(C)(C)C", "rhinovirus 3C protease from HRV serotype-14 (Human rhinovirus 14, UniProt P03303)", "not fulfilled"],
  ["CCOC(=O)/C=C/[C@H](C[C@@H]1CCCNC1=O)NC(=O)[C@H](Cc1ccc(F)cc1)NC(=O)[C@@H](NC(=O)c1cc(C)on1)C(C)C", "rhinovirus 3C protease from HRV serotype-14 (Human rhinovirus 14, UniProt P03303)", "not fulfilled"],
  ["CCOC(=O)/C=C/[C@H](C[C@@H]1CCNC1=O)NC(=O)[C@H](Cc1ccc(F)cc1)NC(=O)[C@@H](NC(=O)c1cc(C)on1)C(C)(C)C", "rhinovirus 3C protease from HRV serotype-14 (Human rhinovirus 14, UniProt P03303)", "not fulfilled"],
  ["CCOC(=O)/C=C/[C@H](CCC(N)=O)NC(=O)[C@H](Cc1ccccc1)NC(=O)[C@@H](NC(=O)c1cccs1)C(C)(C)C", "rhinovirus 3C protease from HRV serotype-14 (Human rhinovirus 14, UniProt P03303)", "fulfilled"],
  ["CCOC(=O)/C=C/[C@H](CCC(N)=O)NC(=O)[C@H](Cc1ccc(F)cc1)NC(=O)[C@@H](NC(=O)c1cc(C)on1)C(C)C", "rhinovirus 3C protease from HRV serotype-14 (Human rhinovirus 14, UniProt P03303)", "not fulfilled"],
  ["CCOC(=O)/C=C/[C@H](CCC(N)=O)NC(=O)[C@H](Cc1ccc(F)cc1)N(C)C(=O)[C@H](CC(C)C)NC(=O)c1cc(C)on1", "rhinovirus 3C protease from HRV serotype-14 (Human rhinovirus 14, UniProt P03303)", "fulfilled"],
  ["CCOC(=O)/C=C/[C@H](CCC(N)=O)NC(=O)[C@H](Cc1ccc(F)cc1)N(C)C(=O)[C@H](Cc1c[nH]cn1)NC(=O)c1cc(C)on1", "rhinovirus 3C protease from HRV serotype-14 (Human rhinovirus 14, UniProt P03303)", "fulfilled"],
  ["CCOC(=O)/C=C/[C@H](CCC(N)=O)NC(=O)[C@H](Cc1ccccc1)NC(=O)[C@H](CC(C)C)NC(=O)c1nc(C)c[nH]1", "rhinovirus 3C protease from HRV serotype-14 (Human rhinovirus 14, UniProt P03303)", "fulfilled"],
  ["CC(C)C[C@H](NC(=O)OCc1ccccc1)C(=O)N[C@@H](Cc1ccccc1)C(=O)N[C@H](/C=C/c1ccno1)CCC(N)=O [Comparison Compound #1, reference compound]", "rhinovirus 3C protease from HRV serotype-14 (Human rhinovirus 14, UniProt P03303)", "fulfilled"],
  ["CCOC(=O)/C=C/[C@H](CCC(N)=O)NC(=O)[C@H](Cc1ccc(C)cc1)NC(=O)[C@@H](NC(=O)c1ccc[nH]1)C(C)(C)C", "rhinovirus 3C protease from HRV serotype-14 (Human rhinovirus 14, UniProt P03303)", "fulfilled"],
  ["CCOC(=O)/C=C/[C@H](CCC(N)=O)NC(=O)[C@H](Cc1ccccc1)NC(=O)[C@H](CC(C)C)NC(=O)[C@@H]1C=CCN1", "rhinovirus 3C protease from HRV serotype-14 (Human rhinovirus 14, UniProt P03303)", "fulfilled"],
  ["CCOC(=O)/C=C/[C@H](CCC(N)=O)NC(=O)[C@H](Cc1ccc(F)cc1)OC(=O)[C@@H](NC(=O)c1cc(C)on1)C(C)C", "rhinovirus 3C protease from HRV serotype-14 (Human rhinovirus 14, UniProt P03303)", "fulfilled"],
  ["CC(C)[C@H](NC(=O)C1SCCS1)C(=O)N[C@@H](Cc1ccc(F)cc1)C(=O)N[C@H](/C=C/C(=O)OCc1cccnc1)CCC(N)=O", "rhinovirus 3C protease from HRV serotype-14 (Human rhinovirus 14, UniProt P03303)", "not fulfilled"],
  ["CCOC(=O)/C=C/[C@H](CCC(N)=O)NC(=O)[C@H](Cc1ccc(F)cc1)NC(=O)[C@@H](NC(=O)C1SCCS1)C(C)(C)C", "rhinovirus 3C protease from HRV serotype-14 (Human rhinovirus 14, UniProt P03303)", "fulfilled"],
  ["CCOC(=O)/C=C/[C@H](CCC(N)=O)NC(=O)[C@H](Cc1ccccc1)NC(=O)[C@H](CC(C)C)NC(=O)c1cc(C)cs1", "rhinovirus 3C protease from HRV serotype-14 (Human rhinovirus 14, UniProt P03303)", "fulfilled"],
  ["CCOC(=O)/C=C/[C@H](CCC(N)=O)NC(=O)[C@H](Cc1ccccc1)NC(=O)[C@H](CC(C)C)NC(=O)c1ccno1", "rhinovirus 3C protease from HRV serotype-14 (Human rhinovirus 14, UniProt P03303)", "fulfilled"],
  ["CCOC(=O)/C=C/[C@H](C[C@@H]1CCNC1=O)NC(=O)[C@H](Cc1ccccc1)NC(=O)[C@H](CC(C)C)NC(=O)OCc1ccccc1", "rhinovirus 3C protease from HRV serotype-14 (Human rhinovirus 14, UniProt P03303)", "not fulfilled"],
  ["CCOC(=O)/C=C/[C@H](CCC(N)=O)NC(=O)[C@H](Cc1ccc(C)cc1)NC(=O)[C@@H](NC(=O)C1SCCS1)C(C)(C)C", "rhinovirus 3C protease from HRV serotype-14 (Human rhinovirus 14, UniProt P03303)", "not fulfilled"]
]}

Data provenance is patent US20060046966A1.
